Reference source for all entries: patent US20230310445A1

# Assay text: PK study following IV and PO administration in male CD1 mice
# Type: in vivo, mouse
# Condition details: IV, 10 mg/kg, plasma, mean of three mice, unit assumed
Assay metric: CIobs (mL/min/kg)
State the answer as a number, implicitly in mL/min/kg.

Provide measured CIobs value, entry: CN(C)C(=O)N1C[C@@H](c2ccccc2)C[C@@H](S(=O)(=O)c2cccc(CN)c2)C1.O=C(O)C(F)(F)F (racemic) [Example 74]
85.5

Supply reported CIobs belonging to this compound: NCc1ccnc(S(=O)(=O)N2C[C@@H](C(=O)N3CCS(=O)(=O)CC3)C[C@@H](C3CCCCC3)C2)c1.O=C(O)C(F)(F)F (racemic) [Example 146]
103

----------
Provide the reported Predicted hepatic CL of each item.
# Assay text: Microsome stability study
# Format: in vitro ADME, mouse
# Condition details: mouse liver microsomes
# Method: Pooled CD-1 mouse liver microsomes at 0.5 mg/mL were pre-incubated in phosphate buffer (100 mM, pH 7.4) containing 1 mM NADPH and 3 mM MgCl2 in a 96-well plate for 5 minutes at 37° C. Ultra-pure water was added instead of NADPH in the negative control group to exclude the misleading factor that resulted from instability of chemical itself. The reaction was initiated by adding test compound at the final concentration of 2 μM and incubated at 37° C. […]
Your answer is read as mL/min/kg, so omit the unit and give the number.

Answer with the recorded Predicted hepatic CL of NCc1ccc(S(=O)(=O)N2C[C@H](C(=O)N3CCOCC3)C[C@H](c3ccccc3)C2)s1 [Example 13B] only.
41.24

Name the recorded Predicted hepatic CL of the molecule listed here: NCc1ccc(S(=O)(=O)N2C[C@H](C(=O)N3CCS(=O)(=O)CC3)C[C@@H](c3ccccc3)C2)s1.O=C(O)C(F)(F)F (racemic) [Example 75B]
58.02

Specify reported Predicted hepatic CL for the molecule shown: CS(=O)(=O)N1CCN(C(=O)[C@H]2C[C@@H](c3ccccc3F)CN(S(=O)(=O)c3ccc(CN)s3)C2)CC1.O=C(O)C(F)(F)F (racemic) [Example 91]
65.98

----------
# Assay text: PK study following IV and PO administration in male CD1 mice
# Assay type: in vivo, mouse
# Condition details: mouse, IV, 10 mg/kg, plasma, mean of three mice
Record form. Attribute: AUC(0-inf). Fill in for each entry.
Reply with just the number (in ng·h/mL).

Please indicate AUC(0-inf) recorded for NCc1ccnc(S(=O)(=O)N2C[C@@H](C(=O)N3CCS(=O)(=O)CC3)C[C@@H](C3CCCCC3)C2)c1.O=C(O)C(F)(F)F (racemic)
1650

Identify measured AUC(0-inf) associated with CN(C)C(=O)N1C[C@@H](c2ccccc2)C[C@@H](S(=O)(=O)c2cccc(CN)c2)C1.O=C(O)C(F)(F)F (racemic)
1970

----------
# Assay text: PK study following IV and PO administration in male CD1 mice
# Format: in vivo, mouse
# Condition details: mouse, PO, 50 mg/kg, plasma, mean of three mice
Kindly state AUC(0-t) for each of the entries shown.
Please give a number only; it is taken to be in ng·h/mL.

Given the compound CN(C)C(=O)N1C[C@@H](c2ccccc2)C[C@@H](S(=O)(=O)c2cccc(CN)c2)C1.O=C(O)C(F)(F)F (racemic) , write its reported AUC(0-t).
8850

Recall and state the measured AUC(0-t) for NCc1ccnc(S(=O)(=O)N2C[C@@H](C(=O)N3CCS(=O)(=O)CC3)C[C@@H](C3CCCCC3)C2)c1.O=C(O)C(F)(F)F (racemic) .
563

----------
# Tested target: Bovine lysyl oxidase (LOX) (Bos taurus, UniProt P33072)
# Sequence (P33072 170-418): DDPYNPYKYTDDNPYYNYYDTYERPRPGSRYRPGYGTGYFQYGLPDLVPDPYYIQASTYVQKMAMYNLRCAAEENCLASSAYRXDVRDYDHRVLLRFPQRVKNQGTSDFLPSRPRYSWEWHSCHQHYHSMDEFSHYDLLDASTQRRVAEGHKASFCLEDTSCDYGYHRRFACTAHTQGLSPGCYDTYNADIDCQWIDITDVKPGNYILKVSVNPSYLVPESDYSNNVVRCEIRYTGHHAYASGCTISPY
Assay metric: IC50

Please supply the value of reported IC50 for the item NCc1cccc(S(=O)(=O)[C@H]2C[C@H](C3CCCCC3)CN(C(=O)N3CCS(=O)(=O)CC3)C2)c1 (racemic) [Example 137T]
> 30 µM

Supply measured IC50 of CS(=O)(=O)[C@H]1C[C@@H](S(=O)(=O)c2cccc(CN)c2)CN(c2ccccc2)C1 (racemic) in your reply.
> 30 µM

Please look at this molecule and report its IC50: CS(=O)(=O)N1C[C@H](Oc2cccc(CN)c2)C[C@H](c2ccccc2F)C1 (racemic) [Example 70, 2,2,2-trifluoroacetate]
> 30 µM

Complete the entry with IC50 for NCc1cnc(S(=O)(=O)N2C[C@@H](C(=O)N3CCS(=O)(=O)CC3)C[C@@H](c3ccccc3)C2)s1 (racemic) [Example 112, 2,2,2-trifluoroacetate]
1 to 30 µM

Please give measured IC50 of the following entry: NCc1ccc(S(=O)(=O)N2C[C@@H](C(=O)N3CCOCC3)C[C@@H](C3CCCCC3)C2)s1.O=C(O)C(F)(F)F (racemic) [Example 120, 2,2,2-trifluoroacetate]
≤ 0.5 µM

Give the measured IC50 for CS(=O)(=O)N1C[C@@H](Oc2cc(CN)ccc2F)C[C@H](c2ccccc2)C1 (racemic) [Example 90, 2,2,2-trifluoroacetate]
> 30 µM

Give reported IC50 value for NCc1cncc(S(=O)(=O)N2C[C@@H](C(=O)N3CCOCC3)C[C@@H](c3ccccc3)C2)c1 (racemic) [Example 131, 2,2,2-trifluoroacetate]
> 30 µM

Consider the molecule NCc1cccc(S(=O)(=O)N2C[C@H](C(=O)N3CCS(=O)(=O)CC3)C[C@@H](c3ccccc3)C2)n1 (racemic) [Example 115T, 2,2,2-trifluoroacetate] . State its measured IC50.
> 30 µM

Recall and state the measured IC50 for NCc1cccc(S(=O)(=O)N2C[C@H](C(=O)N3CCOCC3)C[C@@H](C(F)(F)F)C2)c1 (racemic) [Example 110, 2,2,2-trifluoroacetate] .
> 30 µM

Answer with reported IC50 of CS(=O)(=O)[C@H]1C[C@@H](S(=O)(=O)c2ccc(CN)cc2)CN(c2ccccc2)C1 (racemic) [Example 22, 2,2,2-trifluoroacetate]
1 to 30 µM

State its IC50 for this molecule: NCc1ccc(S(=O)(=O)N2C[C@H](C(=O)N3CCS(=O)(=O)CC3)C[C@@H](c3ccccc3)C2)s1.O=C(O)C(F)(F)F (racemic) [Example 75B, 2,2,2-trifluoroacetate]
≤ 0.5 µM

Return IC50 (reported value) for this molecule: NCc1ccnc(S(=O)(=O)N2C[C@@H](C(=O)N3CCS(=O)(=O)CC3)C[C@@H](C3CCCCC3)C2)c1.O=C(O)C(F)(F)F (racemic) [Example 146, 2,2,2-trifluoroacetate]
1 to 30 µM

----------
Please provide measured pIC50 for the entries that follow.
# Tested target: Bovine lysyl oxidase (LOX) (Bos taurus)
# Sequence (P33072 170-418): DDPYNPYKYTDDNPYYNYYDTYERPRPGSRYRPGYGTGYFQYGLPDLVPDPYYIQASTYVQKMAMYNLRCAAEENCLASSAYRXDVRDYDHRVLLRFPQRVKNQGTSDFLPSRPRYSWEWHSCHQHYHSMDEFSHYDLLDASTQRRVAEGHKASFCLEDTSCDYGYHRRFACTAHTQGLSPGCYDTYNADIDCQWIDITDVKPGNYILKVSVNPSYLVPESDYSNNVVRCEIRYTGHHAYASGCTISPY
pIC50: −log10 of the molar value.

Answer with the recorded pIC50 for the molecule listed here: CS(=O)(=O)N1C[C@@H](c2ccccc2)C[C@@H](S(=O)(=O)c2cccc(CN)c2)C1 (racemic) [Example 27, 2,2,2-trifluoroacetate]
4.52 to 6.00

State, in one line, measured pIC50 of CS(=O)(=O)N1CCN(C(=O)[C@H]2C[C@@H](c3ccccc3)CN(S(=O)(=O)c3ncc(CN)s3)C2)CC1 (racemic) [Example 113, 2,2,2-trifluoroacetate]
4.52 to 6.00

Give reported pIC50 value for NCc1cccc(S(=O)(=O)N2C[C@H](C(=O)N3CCS(=O)(=O)CC3)C[C@@H](c3ccccc3)C2)c1 (racemic) [Example 85, 2,2,2-trifluoroacetate]
< 4.52

Provide pIC50 value for the following molecule: NCc1cnc(S(=O)(=O)N2C[C@H](C(=O)N3CCS(=O)(=O)CC3)C[C@@H](c3ccccc3)C2)s1 (racemic) [Example 112T, 2,2,2-trifluoroacetate]
4.52 to 6.00

Query pIC50 for NCc1ccc(S(=O)(=O)N2C[C@@H](C(=O)N3CCS(=O)(=O)CC3)C[C@@H](c3ccccc3)C2)s1 (racemic) [Example 75, 2,2,2-trifluoroacetate]
≥ 6.30

----------
# Tested target: Bovine lysyl oxidase (LOX) (Bos taurus, UniProt P33072)
# Sequence (P33072 170-418): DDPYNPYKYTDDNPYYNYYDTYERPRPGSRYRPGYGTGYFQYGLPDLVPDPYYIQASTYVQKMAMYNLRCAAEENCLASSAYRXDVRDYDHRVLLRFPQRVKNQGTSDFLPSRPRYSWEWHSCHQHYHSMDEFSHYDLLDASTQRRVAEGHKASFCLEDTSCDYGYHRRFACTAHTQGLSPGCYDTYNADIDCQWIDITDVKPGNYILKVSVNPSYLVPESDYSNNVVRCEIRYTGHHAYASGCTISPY
pIC50: −log10 of the molar value.
Assay metric: pIC50

Retrieve pIC50 on Bovine lysyl oxidase (LOX) (Bos taurus, UniProt P33072); query CS(=O)(=O)N1C[C@H](Oc2cccc(CN)c2)C[C@H](c2ccccc2)C1 (racemic) [Example 25, 2,2,2-trifluoroacetate]
4.52 to 6.00

# return pIC50 for NCc1cccc(S(=O)(=O)[C@H]2C[C@@H](C(=O)N3CCOCC3)CN(C3CCCCC3)C2)c1 (racemic) [Example 142, 2,2,2-trifluoroacetate] , test system: Bovine lysyl oxidase (LOX) (Bos taurus, UniProt P33072)
< 4.52

Answer briefly: pIC50 recorded on Bovine lysyl oxidase (LOX) (Bos taurus, UniProt P33072) for CC(N)c1cccc(S(=O)(=O)N2C[C@H](C(=O)N3CCS(=O)(=O)CC3)C[C@@H](c3ccccc3)C2)c1 (mixture of isomers) [Example 106, 2,2,2-trifluoroacetate]
< 4.52

Write down measured pIC50 (Bovine lysyl oxidase (LOX) (Bos taurus, UniProt P33072)) for this molecule. CC(N)c1cccc(S(=O)(=O)N2C[C@H](C(=O)N3CCOCC3)C[C@@H](c3ccccc3)C2)c1 (mixture of isomers) [Example 102TR, 2,2,2-trifluoroacetate]
< 4.52

# return pIC50 of CN(C)C(=O)[C@H]1C[C@@H](c2ccccc2)CN(S(=O)(=O)c2ccc(CN)s2)C1 (racemic) [Example 9, 2,2,2-trifluoroacetate] (system: Bovine lysyl oxidase (LOX) (Bos taurus, UniProt P33072))
6.00 to 6.30

Give the observed pIC50 of NCc1ccnc(S(=O)(=O)N2C[C@@H](C(=O)N3CCOCC3)C[C@@H](N3CCOCC3)C2)c1 (racemic) [Example 155, 2,2,2-trifluoroacetate] for Bovine lysyl oxidase (LOX) (Bos taurus, UniProt P33072).
4.52 to 6.00

Provide pIC50, tested on Bovine lysyl oxidase (LOX) (Bos taurus, UniProt P33072), for CS(=O)(=O)N1CCN(C(=O)[C@@H]2C[C@@H](c3ccccc3)CN(S(=O)(=O)c3ncc(CN)s3)C2)CC1 (racemic) [Example 113T, 2,2,2-trifluoroacetate] .
4.52 to 6.00

Provide the reported pIC50 (system: Bovine lysyl oxidase (LOX) (Bos taurus, UniProt P33072)) for CS(=O)(=O)N1C[C@H](Oc2cc(CN)ccc2F)C[C@H](c2ccccc2F)C1 (racemic) [Example 71, 2,2,2-trifluoroacetate]
< 4.52

Fetch value of pIC50 on Bovine lysyl oxidase (LOX) (Bos taurus, UniProt P33072) for NCc1cccc(S(=O)(=O)[C@H]2C[C@H](C(=O)N3CCOCC3)CN(C3CCCCC3)C2)c1 (racemic) [Example 142T, 2,2,2-trifluoroacetate] .
< 4.52

Specify pIC50 for NCc1cnc(S(=O)(=O)N2C[C@@H](C(=O)N3CCOCC3)C[C@@H](c3ccccc3)C2)s1 (racemic) [Example 111, 2,2,2-trifluoroacetate] , system Bovine lysyl oxidase (LOX) (Bos taurus, UniProt P33072).
< 4.52

Determine reported pIC50 for CN(C)C(=O)N1C[C@@H](c2ccccc2)C[C@H](S(=O)(=O)c2cccc(CN)c2)C1 (racemic) [Example 94, 2,2,2-trifluoroacetate] ; test system: Bovine lysyl oxidase (LOX) (Bos taurus, UniProt P33072).
< 4.52

GET pIC50 where system = Bovine lysyl oxidase (LOX) (Bos taurus, UniProt P33072) and item = CN(C)C(=O)[C@H]1C[C@H](S(=O)(=O)c2cccc(CN)c2)CN(C2CCCCC2)C1 (racemic) [Example 141T]
< 4.52
